# System: RARg:RXRa (NR concentration 270 nM, RXRa partner concentration 90 nM)
# Method Notes: PBM binding z-score (relative to random genomic background probes); higher = stronger binding; sequences stand for … in GC…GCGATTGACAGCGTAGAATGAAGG
# reported PBM binding z-score; entries follow
Form: value (number only, do not type unit).

Construct Sequence	Test Target	PBM binding z-score
CAAACTAGATCAAGGTCAAAGTCGGTTTGTGCCA	RARg:RXRa (NR concentration 270 nM, RXRa partner concentration 90 nM)	3.89
ATCGAAAGGTCGTTAGGTGAGTATACAGAAAGGC	RARg:RXRa (NR concentration 270 nM, RXRa partner concentration 90 nM)	3.91

Please find the next sequence below.
Exam item: Indicate its recorded PBM binding z-score; the sequence in question is TAGCCTAGGTCATTCAGGGACCAGTATAGAAAGC
Marked response: 3.94

---

# reported PBM binding z-score; entries follow
# Test system: LXRa homodimer (NR concentration 270 nM)
# Method Notes: PBM binding z-score (relative to random genomic background probes); higher = stronger binding; sequences stand for … in GC…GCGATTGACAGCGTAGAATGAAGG

Exam item: Indicate its recorded PBM binding z-score; the sequence in question is CGAACTAGGTCATTGACAGGACAGTGTATAGTAA
Marked response: 0.874

Exam item: Indicate its recorded PBM binding z-score; the sequence in question is GCTTGGAGATCAAGGTTAAGAAAGACTAAGCTAA
Marked response: -0.403

Exam item: Indicate its recorded PBM binding z-score; the sequence in question is ATCTCTAGGTAACAGTTCAGTGAATCCCGAGGAT
Marked response: 0.588

Exam item: Indicate its recorded PBM binding z-score; the sequence in question is TCTGGGAGGACACGAAGGTCAGAGCTTTCCAGAG
Marked response: 0.204

---

# reported PBM binding z-score; entries follow
# Tested on: RARg homodimer (NR concentration 270 nM)
# Method Notes: PBM binding z-score (relative to random genomic background probes); higher = stronger binding; sequences stand for … in GC…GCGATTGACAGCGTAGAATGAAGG
Form: value (number only, do not type unit).

Exam item: Indicate its recorded PBM binding z-score; the sequence in question is ATCGAAAGGTCGACGAGGTGAGTCTACACCGTTT
Marked response: 3.95

Exam item: Indicate its recorded PBM binding z-score; the sequence in question is CCTACTGGGCCAAAGGTCATTGATTCCAATGCTC
Marked response: 4.86

Exam item: Indicate its recorded PBM binding z-score; the sequence in question is TGTCAAAGTACAAAGGTAACGTAAGTATCCACAC
Marked response: 1.32

Exam item: Indicate its recorded PBM binding z-score; the sequence in question is CCTAGTTGGTGAAGGTCACACACGCTATAGGTAC
Marked response: 4.06

Exam item: Indicate its recorded PBM binding z-score; the sequence in question is ATCTCTAGGCAACAAGTTCAGTGAAAGAGAGGAC
Marked response: 0.889

Exam item: Indicate its recorded PBM binding z-score; the sequence in question is TATACAGGCTCAAAGGCCAGAGTACGAATGTCGA
Marked response: 0.897

Exam item: Indicate its recorded PBM binding z-score; the sequence in question is CGTATTAGTTGACCATAAGGGCAACCGAAGCTCG
Marked response: 0.883

---

# Test system: PXR homodimer (NR concentration 270 nM)
# Method Notes: PBM binding z-score (relative to random genomic background probes); higher = stronger binding; sequences stand for … in GC…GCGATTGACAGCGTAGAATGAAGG
Property Measured: PBM binding z-score
Form: value (number only, do not type unit).

Check out these entries, answers already filled in.
Construct Sequence	PBM binding z-score
ATATGTAGGTTAAGGGTCGTTCAGGTTGGTTCGC	2.22
CGTCCAAGGTCATAGGAGGGCAGTGAAGACAGAT	1.56

Please find the next sequence below.
Exam item: Param request: PBM binding z-score | system PXR homodimer (NR concentration 270 nM) | item AATACAGGTTCACTAGGCCAGAGTAGGTACGAAT
Marked response: 0.559

---

# System: RARa homodimer (NR concentration 270 nM)
# Method Notes: PBM binding z-score (relative to random genomic background probes); higher = stronger binding; sequences stand for … in GC…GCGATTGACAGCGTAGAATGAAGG
# reported PBM binding z-score; entries follow
Form: value (number only, do not type unit).

Check out these entries, answers already filled in.
Construct Sequence	Test Target	PBM binding z-score
TGAACGAGGTTAAAGATCAGGGAACGTGGCGTCG	RARa homodimer (NR concentration 270 nM)	-0.0319
CCTACTGGGCCATTCAGAGGTCATGGATCATATG	RARa homodimer (NR concentration 270 nM)	0.962
CATCAAAGTTCAACTAAGGTAACGTAAAGCACGC	RARa homodimer (NR concentration 270 nM)	3.5
GCTGCTAGGTCAGGTTTGTCAGCTAACGGGTACG	RARa homodimer (NR concentration 270 nM)	-0.0516
CAAACTAGGTCCCCGGAAGGTCAAAGTCCGCATG	RARa homodimer (NR concentration 270 nM)	0.686
TCTTGTAGATCAGCAGGTTTAGAAAGCTGGCCAA	RARa homodimer (NR concentration 270 nM)	-0.74

Exam item: Indicate its recorded PBM binding z-score; the sequence in question is CCTACTGGGGCAAGGTTACCATAACGCACAGCCA
Marked response: 0.512

---

# Tested on: PPARg DBDmut:RXRa IVT, anti-PPARg (DBD mutation: PPARg1 K132A/R137A, NR concentration 270 nM, RXRa partner concentration 90 nM)
# Method Notes: PBM binding z-score (relative to random genomic background probes); higher = stronger binding; sequences stand for … in GC…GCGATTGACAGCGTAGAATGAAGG
Property Measured: PBM binding z-score
Form: value (number only, do not type unit).

Construct Sequence	PBM binding z-score
TAGCCTAGGTCATTGGGCCAGTAGAGTACGCATC	-0.36
AGTCAAAGTTCAGAACGAGGTAACGTAAAGCACG	0.709
GGACCAAGGTGAATAGGTCGTTGATGAGTAGGCG	-0.0535
TCTTGTCGATCAACAGGAGGTTAAGAAAGATCGA	-0.14
CGAACTAGGTCATTGACAGGCCAGTGAATAGTAA	0.866
TAGACTAGGTCAGATCGGGCCAGTATACGCTATA	1.46
CCTACTGGGCCAAAGGTTATTGATTCCAATGCTC	0.256

Please find the next sequence below.
Exam item: Indicate its recorded PBM binding z-score; the sequence in question is AGAATGAGGTTATTAAGATCACGGAATTGCGGTC
Marked response: 1.05

---

# Tested on: LXRa homodimer (NR concentration 270 nM)
# Method Notes: PBM binding z-score (relative to random genomic background probes); higher = stronger binding; sequences stand for … in GC…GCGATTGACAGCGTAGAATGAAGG
# reported PBM binding z-score; entries follow
Form: value (number only, do not type unit).

Check out these entries, answers already filled in.
Construct Sequence	PBM binding z-score
CATACAGGGTTAGCTAGGCCAGAGTAGGGACGGC	-0.431
CGAACTAGGTCAGAACAGGACAGTGAAGGATGAT	-0.0376
TCTTGTAGATCCAGCAGGTTAAGAAAGCCTGAGT	-0.293
ACTTACGGGTCAACGAGGTTAGAGCACGCGTATA	0.422

Exam item: Indicate its recorded PBM binding z-score; the sequence in question is GGAACGAGGGCAAAGTCGATAGCATCTGTCGACG
Marked response: -0.902

---

# System: LXRb:RXRa (NR concentration 270 nM, RXRa partner concentration 90 nM)
# Method Notes: PBM binding z-score (relative to random genomic background probes); higher = stronger binding; sequences stand for … in GC…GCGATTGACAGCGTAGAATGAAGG
Property Measured: PBM binding z-score
Form: value (number only, do not type unit).

Check out these entries, answers already filled in.
Construct Sequence	PBM binding z-score
TCTGCTAGGTCAGTTGGTGAGCTAACGAGCTGCC	-0.0479
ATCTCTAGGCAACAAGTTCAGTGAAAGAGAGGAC	0.139
CCTACTGGGCCAAAGGTCATTGAATCCAATGCTC	4.91
CCTTGCAGGCCAGGGTCACTCAAGCATTTCGCTT	1.99
ATCGAAAGGTCGAGGTGGGTATAGAGAAAGGGAA	3.12
TCGTATAGGTAAAGGTGAAAGTCGAACGATATGA	1.11

Exam item: Param request: PBM binding z-score | system LXRb:RXRa (NR concentration 270 nM, RXRa partner concentration 90 nM) | item AATACAGGGTCATCGTTGGCCAGAGTACGCACAG
Marked response: 4.57

Exam item: Param request: PBM binding z-score | system LXRb:RXRa (NR concentration 270 nM, RXRa partner concentration 90 nM) | item ACTAGCAGGCCAAGTATGGGTCACTCAAACAAAG
Marked response: 0.932

Exam item: Param request: PBM binding z-score | system LXRb:RXRa (NR concentration 270 nM, RXRa partner concentration 90 nM) | item TCTATTAGTTGATTAAGGCAACCGAAACAGCGGA
Marked response: 0.645

Exam item: Param request: PBM binding z-score | system LXRb:RXRa (NR concentration 270 nM, RXRa partner concentration 90 nM) | item TAGCCGAGGTCATGGGCCAGTATACCACGCGAAC
Marked response: 4.99
